This listing pairs compounds with measured Body weight.
- method: Weekly body weight of SHR rats
- Type: in vivo, rat
- test parameters: 60 mg/kg/d intragastric, week 0
- Experimental: 2.1 Grouping and administration of animals: 112 SHR rats (the female and male SHR rats are half and half, and the female rats are not pregnant) with the body weight of 200-250 g are taken, the rats are enabled to adapt to a laboratory for a period of 5 d, blood pressure is measured once at a day to enable the rats to adapt to the environment and detect stimulation. […]
Write the number in g without appending the unit.

Would you please look over these solved cases?
Query: Body weight; subject: C[C@@H]1C(=O)O[C@H]2[C@H](O)[C@@]34C5C[C@@H](C(C)(C)C)C36[C@@H](OC(=O)[C@@H]6OC(=O)[C@H](c3ccccc3Cl)N3CCc6sccc6C3)O[C@@]4(C(=O)O5)[C@@]12O (stereo partly drawn) [BL] 230.9

Can you handle Cc1nc(C)c(CO[C@H]2C(=O)O[C@H]3O[C@]45C(=O)OC6C[C@@H](C(C)(C)C)C32[C@@]64[C@@H](O)[C@@H]2OC(=O)[C@@H](C)[C@@]25O)nc1C (stereo partly drawn) [BM] next? 231.5

Continue with the compound presented below.
Look at this compound and give its reported Body weight. CC1C(=O)OC2C(O)C34C5CC(C(C)(C)C)C36C(OC(=O)C6O)OC4(C(=O)O5)C12O (stereo not drawn) [GB, ginkgolide B] 230.8
